Source of measurements: ChEMBL document CHEMBL1122933

# Species on record: Rattus norvegicus
# Assay notes: Specific activity of the DSI segment in rat intestine
# Assay type: functional
Measured Specific activity, listed per entry.
Recorded endpoint: Specific activity (nM/min)

>>> numeric_readout("CC1CC2C3CCC4=CC(=O)C=CC4(C)[C@@]3(F)C(O)CC2(C)[C@@]1(O)C(=O)CO[C@@H]1O[C@H](CO)[C@@H](O)[C@H](O)[C@H]1O (some centres undefined)")
19.3
>>> numeric_readout("O=[N+]([O-])c1ccc(O[C@@H]2O[C@H](CO)[C@@H](O[C@@H]3O[C@H](CO)[C@@H](O)[C@H](O)[C@H]3O)[C@H](O)[C@H]2O)cc1")
26
>>> numeric_readout("CC12CCC(=O)C=C1CCC1C2C(O)CC2(C)C1CC[C@]2(O)C(=O)CO[C@@H]1O[C@@H](CO)[C@@H](O)[C@H](O)[C@H]1O (some centres undefined)")
110
>>> numeric_readout("CC12CCC(=O)C=C1CCC1C3CC[C@](O)(C(=O)CO[C@H]4O[C@@H](CO)[C@@H](O)[C@H](O)[C@H]4O)C3(C)CC(O)[C@@]12F (some centres undefined)")
33
